Assay: Determination of compound sulfonamide group pKa (UV-Vis spectra at different pH)
Assay type: physicochemical
Conditions: universal buffer; spectrophotometric, 37 °C; read-out: Sulfonamide pKa
Kind request: treat 10 as inclusive, so pKa at 10 or higher is True, anything lower is False.

Cc1csc(N(CCC(=O)NN)c2ccc(S(N)(=O)=O)cc2)n1 [Compound 29] | True

Dear colleague, could you confirm whether CCOC(=O)c1sc(N(CCC(=O)OC)c2ccc(S(N)(=O)=O)cc2)nc1C [Compound 32] has pKa at or above 10?
False

Now the compound Cc1csc(N(CCC(=O)O)c2ccc(S(N)(=O)=O)cc2)n1 [Compound 27]
True
